meta.source: ChEMBL document CHEMBL5223163

# test name: Lipophilicity, log P of the compound
# Assay type: physicochemical
# test settings: octanol/water
assay readout: logP

Fill in: logP of CC(C)(CC(=O)N1CCN(c2ccc(O)cn2)CC1)c1ccccc1 is ___
3.41

---

# subject of test: NAD-dependent malic enzyme, mitochondrial (Homo sapiens, UniProt P23368)
# Sequence (P23368 whole entry): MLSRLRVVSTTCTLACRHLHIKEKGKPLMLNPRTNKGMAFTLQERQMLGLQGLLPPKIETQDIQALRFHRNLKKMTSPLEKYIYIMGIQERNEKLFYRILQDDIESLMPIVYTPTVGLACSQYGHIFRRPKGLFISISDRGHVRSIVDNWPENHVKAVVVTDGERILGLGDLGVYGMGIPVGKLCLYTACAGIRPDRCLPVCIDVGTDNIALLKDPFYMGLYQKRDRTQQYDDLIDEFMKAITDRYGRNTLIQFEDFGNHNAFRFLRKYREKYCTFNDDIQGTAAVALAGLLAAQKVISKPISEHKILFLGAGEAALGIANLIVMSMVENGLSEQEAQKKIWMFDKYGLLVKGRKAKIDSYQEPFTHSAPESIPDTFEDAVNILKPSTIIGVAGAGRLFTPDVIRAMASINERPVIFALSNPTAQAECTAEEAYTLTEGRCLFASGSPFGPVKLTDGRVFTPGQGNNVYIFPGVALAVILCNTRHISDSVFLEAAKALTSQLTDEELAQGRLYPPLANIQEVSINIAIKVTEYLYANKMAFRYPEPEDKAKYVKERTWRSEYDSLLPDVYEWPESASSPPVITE
# test name: Inhibition of His-tagged human recombinant full length ME2 using L-malate and beta-NAD+ as substrate preincubated with enzyme for 5 mins followed by beta-NAD+ challenge and incubated under shaking for 5 mins followed by incubation for 2 hrs without shaking by resorufin dye based fluorescence analysis
# test settings: read-out: IC50
Rule for this label: yes (1) means IC50 is less than 1000 nM; no (0) means IC50 is at least 1000 nM.

Please check: IC50 for O=C(/C=C/c1ccccc1)N1CCN(c2ccc(O)cc2)CC1 , strictly under 1000 nM or not?
yes (1)

Continue with CC(C)(CC(=O)N1CCN(c2ccc(O)cc2)CC1)c1ccccc1
yes (1)

Proceed to O=C(CCc1ccccc1)N1CCN(c2ccc(O)cn2)CC1
no (0)

Cool, now O=C(CN1CCN(c2ccc(O)cc2)CC1)Nc1ccccc1
yes (1)

Same for CC(C)(CC(=O)N1CCN(c2ccc(O)cn2)CC1)c1ccc(F)cc1
no (0)

For CCCCOc1ccc(CCC(=O)N2CCN(c3ccc(O)cc3)CC2)cc1 then?
yes (1)

Consider next the compound O=C(Cc1ccc(C(F)(F)F)cc1)N1CCN(c2ccc(O)cc2)CC1 in the same way.
yes (1)

Check CC(C)(CC(=O)N1CCN(c2ccc(O)cn2)CC1)c1ccccc1 too.
no (0)

Thanks! And O=C(CCc1ccc(Cl)cc1)N1CCN(c2ccc(O)cn2)CC1 ?
no (0)

Moving on to O=C(Cc1ccccc1)N1CCN(c2ccc(O)cc2)CC1
yes (1)

Same question for CCCCOc1ccc(CCC(=O)N2CCN(c3ccc(O)cn3)CC2)cc1 please.
no (0)

Field entry: O=C(CCc1cccs1)N1CCN(c2ccc(O)cn2)CC1
no (0)

Moving on to the next compound: O=C(COc1ccccc1)N1CCN(c2ccc(O)cc2)CC1
yes (1)

Okay, and O=C(Nc1nnn[nH]1)c1cc(-c2ccccc2)nc2ccccc12 ?
no (0)

Same lookup for O=C(CCc1ccc(F)cc1)N1CCN(c2ccc(O)cn2)CC1 , please.
no (0)
